Data provenance is the supplement of paper PMC10567573.

Recorded measurements of protein stability index, one per entry
B1: RHOBTB3 (parent)
chain: QLQSMPSRELASMNLDIVDLLKKA

Variants of: B1
Assay: protein stability index of a GFP-peptide fusion (GPS, HEK-293T) (PSI 1-6); higher = more stable;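 note: lentivirally expressed fusions sorted by FACS into six bins by GFP to DsRed ratio, PSI derived from sequencing read proportions per bin multiplied by bin number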
Settings: c terminus: a fixed tail appended
Hey, just send me the number, nothing else.

Here is how some variants turned out for protein stability index.
mutation_spec=S4D quantity_measured="protein stability index" numeric_readout=3.82
mutation_spec=S4R quantity_measured="protein stability index" numeric_readout=3.06
mutation_spec=S4P quantity_measured="protein stability index" numeric_readout=3.54
mutation_spec=L20R quantity_measured="protein stability index" numeric_readout=3.94
mutation_spec=M5W quantity_measured="protein stability index" numeric_readout=2.07

Identify protein stability index associated with the variant "A11N"
3.29
